Biological target: PDZ protein (GST-PDZ fusion) (Homo sapiens)
Construct: made in house; host or cells: E. coli (DH5alpha, BL21 or JM109)
Sequence (Q9Y2H9 whole entry, the tested form may be a part): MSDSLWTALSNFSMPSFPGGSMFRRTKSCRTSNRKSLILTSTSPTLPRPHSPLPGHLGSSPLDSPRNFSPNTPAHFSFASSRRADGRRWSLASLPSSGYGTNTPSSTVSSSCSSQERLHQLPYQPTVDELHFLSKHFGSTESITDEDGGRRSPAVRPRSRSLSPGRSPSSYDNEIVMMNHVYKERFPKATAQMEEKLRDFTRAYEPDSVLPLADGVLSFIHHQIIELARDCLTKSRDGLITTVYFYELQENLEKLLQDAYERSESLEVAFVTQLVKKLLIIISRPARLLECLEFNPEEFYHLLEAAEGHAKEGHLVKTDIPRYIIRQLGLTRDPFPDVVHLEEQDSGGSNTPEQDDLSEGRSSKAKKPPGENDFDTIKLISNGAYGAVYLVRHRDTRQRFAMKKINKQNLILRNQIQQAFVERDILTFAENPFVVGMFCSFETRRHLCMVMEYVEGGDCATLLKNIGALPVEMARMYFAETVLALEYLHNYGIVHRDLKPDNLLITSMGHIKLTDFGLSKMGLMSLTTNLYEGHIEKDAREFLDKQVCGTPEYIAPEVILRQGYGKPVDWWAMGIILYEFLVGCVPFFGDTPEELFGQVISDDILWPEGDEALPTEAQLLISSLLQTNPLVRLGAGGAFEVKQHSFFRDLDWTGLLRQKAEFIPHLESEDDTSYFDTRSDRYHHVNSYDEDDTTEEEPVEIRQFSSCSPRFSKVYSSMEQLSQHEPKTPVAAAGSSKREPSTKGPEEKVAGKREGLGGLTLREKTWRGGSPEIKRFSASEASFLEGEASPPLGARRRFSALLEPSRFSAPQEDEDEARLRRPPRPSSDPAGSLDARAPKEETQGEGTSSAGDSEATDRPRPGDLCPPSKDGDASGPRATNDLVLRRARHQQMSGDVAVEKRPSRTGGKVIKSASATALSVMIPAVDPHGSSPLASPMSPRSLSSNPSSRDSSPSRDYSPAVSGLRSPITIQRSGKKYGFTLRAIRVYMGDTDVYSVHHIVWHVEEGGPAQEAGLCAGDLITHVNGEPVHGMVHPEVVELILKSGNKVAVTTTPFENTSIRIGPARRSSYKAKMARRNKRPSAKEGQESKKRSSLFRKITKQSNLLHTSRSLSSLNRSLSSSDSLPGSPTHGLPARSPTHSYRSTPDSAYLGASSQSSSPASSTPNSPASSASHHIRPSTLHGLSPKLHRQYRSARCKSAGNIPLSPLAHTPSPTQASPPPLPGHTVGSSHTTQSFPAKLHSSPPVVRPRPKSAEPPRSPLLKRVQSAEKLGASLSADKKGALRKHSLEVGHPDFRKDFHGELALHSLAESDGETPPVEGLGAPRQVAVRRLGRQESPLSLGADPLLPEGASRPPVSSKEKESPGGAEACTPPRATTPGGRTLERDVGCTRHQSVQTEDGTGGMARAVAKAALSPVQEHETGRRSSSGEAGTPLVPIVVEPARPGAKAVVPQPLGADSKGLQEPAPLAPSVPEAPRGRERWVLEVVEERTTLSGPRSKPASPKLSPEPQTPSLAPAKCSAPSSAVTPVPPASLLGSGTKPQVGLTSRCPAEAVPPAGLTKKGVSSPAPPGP
Test: G' assay (10 uM PL peptide), results of TABLE 7 and TABLE 12
Type: binding
Conditions: PDZ KIAA0973, PDZ Domain 1
Text: Each page of TABLE 7 and 12 includes seven columns. The columns in each table are numbered from left to right such that the left-most column in each table is column 1 and the right-most column in each table is column 7. […] Finally, the seventh column labeled “Classification” is another measure of the level of binding. In particular, it provides an absorbance value at 450 nm which indicates the amount of PL peptide bound to the PDZ protein. […]
Ends that are not written are not given here. * marks the point of attachment. Biotin = O=C1N[C@H]2[C@H](CS[C@H]2CCCCC(=O)*)N1
In this section we review reported Classification values for a set of substances.

The cases that follow already have their Classification on record.
SUBSTANCE	Classification
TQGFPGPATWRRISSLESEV	1 (A450 nm 0-1)
KTMPAATYRLLTGQEQPVYL (Biotin-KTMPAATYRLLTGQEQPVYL) [MINT-3]	2 (A450 nm 1-2)
PPATPSPRLALPAHHNATRL (Biotin-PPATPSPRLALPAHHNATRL) [Na+/Pi cotransporter 2]	2 (A450 nm 1-2)
SSKSKSSEESQTFFGLYKL (Biotin-SSKSKSSEESQTFFGLYKL) [Fas Ligand]	2 (A450 nm 1-2)
A2AC_HUMAN (Modified) (Biotin-DFRPSFKHILFRRARRGFRQ; not fully specified)	3 (A450 nm 2-3)
VHDAESSDEDGYDWGPATDL (Biotin-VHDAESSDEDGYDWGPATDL) [zona occludens 3 (ZO-3)]	2 (A450 nm 1-2)

Prompt line: Input KKGTYLTDETHREVKFTSL (Biotin-KKGTYLTDETHREVKFTSL) [CD46] , output reported Classification.
Response line: 2 (A450 nm 1-2)

Prompt line: Return the recorded Classification value; entry: ALVLIAFCIIRRRPSAYQAL (Biotin-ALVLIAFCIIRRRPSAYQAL) [CD68]
Response line: 1 (A450 nm 0-1)

Prompt line: Please supply the value of reported Classification for the item NSYVRDDAIFIKAIVDLTGL (Biotin-NSYVRDDAIFIKAIVDLTGL) [TRAF2]
Response line: 1 (A450 nm 0-1)
